// reported Trimeric HA Binding RLU per item
molecular target: recombinant homotrimeric HA, A/California/4/09 H1N1 (Influenza A virus A/California/4/09 (H1N1)); test: trimeric HA microarray, transfection set 2; settings: remark: other sources report otherwise

Binder: TCN-504 (3251_K17) (antibody, V domains shown) VH: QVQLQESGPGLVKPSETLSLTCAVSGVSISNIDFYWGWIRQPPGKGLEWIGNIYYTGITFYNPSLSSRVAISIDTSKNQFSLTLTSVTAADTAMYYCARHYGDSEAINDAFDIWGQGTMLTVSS VL: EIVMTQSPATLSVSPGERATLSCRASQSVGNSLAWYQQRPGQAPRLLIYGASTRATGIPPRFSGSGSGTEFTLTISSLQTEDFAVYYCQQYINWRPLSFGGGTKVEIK
Trimeric HA Binding RLU / RLU: 15600

Binder: TCN-527 (5086_C06) (antibody, V domains shown) VH: QVQLQESGPGLVKPSETLSLNCAVSGGSISNYYWSWIRQPPGKGLEWIGYISYNGRPKYNPSLTSRVTISVDTSKDQFSLELRSVTAADTALYYCARETRFGELLSPYDAFEIWGQGTMVTVSS VL: DIQMTQSPSSLSASVGDRVTMTCRASQNIRSYLNWYQQRPGTAPKLLIYAASTLHSGVPSRFSGGGSGTDFTLTINNLQPEDFASYYCQQSYDNPQTFGQGTKVEIK
Trimeric HA Binding RLU / RLU: 21500

Binder: TCN-522 (3212_I12) (antibody, V domains shown) VH: QVQLQQWGAGLLKPSETLSLTCTVSGGSLTDYSWNWIRQPPGKGLEWIGDTLHNGYTNYNPSLRGRVSISIDTSKNQVSLRLTSVTAADTALYYCARGSGGYGGFDYFGKLRTWDFWGQGTLVTVSS VL: DIQLTQSPSSLSASVGDRVTITCRASQGIRNDLGWYQQKPGNAPKRLIFGASSLQSGVPSRFSGSGSGTEFTLTISSLQPEDFATYYCLQHNSYPYTFGQGTKLEIK
Trimeric HA Binding RLU / RLU: 37500
